Target: MAGE-A1 target antigen peptide … presented by HLA-A*02:01 on cells (human)
Test: cell-based or functional assay
Set-up: unit not given beside the values
Result type: EC50 Enhancement Factor

Binder	Result type	Reported value
ht27M1436 (TCR, V domains shown) Valpha: GEDVEQSLFLSVREGDSSVINCTYTDSSSTYLYWYKQEPGAGLQLLTYTFWFMDMKQDQRLTVLLNKKDKHLSLRIADTQTGDSAIYFCAGSGGGTDKLIFGTGTRLQVFP Vbeta: GAVVSQHPSWVICKSGTSVKIECRSLDFQATTMFWYRQFPKQSLMLMATSNEGSKATYEQGVEKDKFLINHASLTLSTLTVTSAHPEDSSFYICSAREPGQGPYEQYFGPGTRLTVT	EC50 Enhancement Factor	82.8
ht27M1381 (TCR, V domains shown) Valpha: GEDVEQSLFLSVREGDSSVINCTYVDPYSTYLYWYKQEPGAGLQLLTYIFSNMDMKQDQRLTVLLNKKDKHLSLRIADTQTGDSAIYFCAGSGGGTDKLIFGTGTRLQVFP Vbeta: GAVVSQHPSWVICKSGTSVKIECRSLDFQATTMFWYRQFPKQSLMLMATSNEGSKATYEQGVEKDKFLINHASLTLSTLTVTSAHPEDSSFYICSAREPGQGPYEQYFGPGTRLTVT	EC50 Enhancement Factor	131
ht27M1013 (TCR, V domains shown) Valpha: GEDVEQSLFLSVREGDSSVINCTYTDSSSTYLYWYKQEPGAGLQLLTYIFSNMDMKQDQRLTVLLNKKDKHLSLRIADTQTGDSAIYFCAGSGGGTDKLIFGTGTRLQVFP Vbeta: GAVVSQHPSWVICKSGTSVKIECRSLDFQATTMFWYRQFPKQSLMLMATSNEGSKATYEQGVEKDKFLINHASLTLSTLTVTSAHPEDSSFYICSAREPGSGPFEQYFGPGTRLTVT	EC50 Enhancement Factor	841
ht27M1401 (TCR, V domains shown) Valpha: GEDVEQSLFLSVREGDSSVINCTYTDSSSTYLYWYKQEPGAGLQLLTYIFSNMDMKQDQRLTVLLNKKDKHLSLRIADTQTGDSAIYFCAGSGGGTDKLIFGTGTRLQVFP Vbeta: GAVVSQHPSWVICKSGTSVKIECRSLDFQATTMFWYRQFPKQSLMLMATTQPLSKATYEQGVEKDKFLINHASLTLSTLTVTSAHPEDSSFYICSAREPGQGPYEQYFGPGTRLTVT	EC50 Enhancement Factor	184
ht27M1004 (TCR, V domains shown) Valpha: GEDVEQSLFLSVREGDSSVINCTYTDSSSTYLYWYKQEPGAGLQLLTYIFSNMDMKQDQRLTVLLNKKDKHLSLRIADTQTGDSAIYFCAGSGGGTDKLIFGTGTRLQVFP Vbeta: GAVVSQHPSWVICKSGTSVKIECRSLDFQATTMFWYRQFPKQSLMLMATSNEGSKATYEQGVEKDKFLINHASLTLSTLTVTSAHPEDSSFYICSAREPGQGPFEQYFGPGTRLTVT	EC50 Enhancement Factor	944
ht27M1005 (TCR, V domains shown) Valpha: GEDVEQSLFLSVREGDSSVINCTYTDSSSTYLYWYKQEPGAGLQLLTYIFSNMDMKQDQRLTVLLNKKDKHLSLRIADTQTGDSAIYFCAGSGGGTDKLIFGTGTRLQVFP Vbeta: GAVVSQHPSWVICKSGTSVKIECRSLDFQATTMFWYRQFPKQSLMLMATSNEGSKATYEQGVEKDKFLINHASLTLSTLTVTSAHPEDSSFYICSAREPGQGPLEQYFGPGTRLTVT	EC50 Enhancement Factor	11
ht27M1369 (TCR, V domains shown) Valpha: GEDVEQSLFLSVREGDSSVINCTYTDSSSTYLYWYKQEPGAGLQLLTYIFAFESMKQDQRLTVLLNKKDKHLSLRIADTQTGDSAIYFCAGSGGGTDKLIFGTGTRLQVFP Vbeta: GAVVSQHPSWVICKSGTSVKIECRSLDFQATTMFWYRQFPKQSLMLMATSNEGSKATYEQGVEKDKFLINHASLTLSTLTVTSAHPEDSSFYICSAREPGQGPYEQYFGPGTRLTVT	EC50 Enhancement Factor	218
ht27M1360 (TCR, V domains shown) Valpha: GEDVEQSLFLSVREGDSSVINCTYTDSSSTYLYWYKQEPGAGLQLLTYIFGFDTMKQDQRLTVLLNKKDKHLSLRIADTQTGDSAIYFCAGSGGGTDKLIFGTGTRLQVFP Vbeta: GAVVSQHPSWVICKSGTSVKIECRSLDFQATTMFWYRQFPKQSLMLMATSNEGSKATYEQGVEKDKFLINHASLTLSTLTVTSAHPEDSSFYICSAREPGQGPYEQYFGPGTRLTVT	EC50 Enhancement Factor	277
ht27M1006 (TCR, V domains shown) Valpha: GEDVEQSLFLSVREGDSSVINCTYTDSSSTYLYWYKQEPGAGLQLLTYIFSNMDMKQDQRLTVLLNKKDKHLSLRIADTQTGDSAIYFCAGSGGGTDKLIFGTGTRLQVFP Vbeta: GAVVSQHPSWVICKSGTSVKIECRSLDFQATTMFWYRQFPKQSLMLMATSNEGSKATYEQGVEKDKFLINHASLTLSTLTVTSAHPEDSSFYICSAREPGQGPWEQYFGPGTRLTVT	EC50 Enhancement Factor	445
ht27M1418 (TCR, V domains shown) Valpha: GEDVEQSLFLSVREGDSSVINCTYTDSSSTYLYWYKQEPGAGLQLLTYGTWLMDMKQDQRLTVLLNKKDKHLSLRIADTQTGDSAIYFCAGSGGGTDKLIFGTGTRLQVFP Vbeta: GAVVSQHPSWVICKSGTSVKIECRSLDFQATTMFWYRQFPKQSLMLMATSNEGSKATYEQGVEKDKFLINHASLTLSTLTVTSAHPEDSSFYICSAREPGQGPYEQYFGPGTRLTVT	EC50 Enhancement Factor	1650
